Experimental system: T1, TDP-210 peptide (human)
T1 construct: 8-mer of human TDP-43; same ELISA method as for the biotinylated 15-mers
T1 peptide: FFSQYGDV
Measurement notes: indirect ELISA, 8-mer peptide library
Observable: binding result

INSERT INTO assay_data (binder, observable, assay_result) VALUES
  ('ACI-7062-415C4-Ab1 (antibody, IgG1, V domains shown, also called 415C4C6; clone 14) VH: QVTLKESGPGILQPSQTLSLTCSFSGFSLSTYGIGVGWIRQPSGKGLEWLAHIWWNDNKYYKTALKSRLTISKDTSNNQVFLKIASVDTADSATYYCARVYGNLYYFGYWGQGTTLTVSS VL: DVLMTQTPLSLPVSLGDQASISCRSSQSIVHSTGNTYLEWYLQKPGQSPKLLIYKVSNRFSGVPDRFSGSGSGTDFTLKISRVEAEDLGVYYCFQGSRVPTFGAGTKLELKR', 'binding result', 'no binding'),
  ('ACI-7062-401A2-Ab2 (antibody, IgG1, V domains shown, also called 401A2C6; clone 2) VH: DVQLVESGGGLVQPGGSRRLSCAASGFTFSRFGMHWVRQAPEKGLEWVAYIRSGSDIIYYADSVKGRFTISRDNPENTLFLQMTSLRSEDTAMYYCARSGTTVPFDYWGQGTSLTVSS VL: DIVMTQSPSSLAMSVGQKVTMSCKSSQSLLNSGDQKNYLAWYQQKPGQSPELLLYFASTRASGVPDRFIGSGSGTDFSLTISSVQAEDLADYFCQQHYSIPLTFGAGTKLELKR', 'binding result', 'no binding');
